Some molecules, each annotated with its measured IC50.
- assayed_target: DCN1 (DCUND1) protein PONY domain (Homo sapiens (Human))
- assay_procedure: TR-FRET assay, DCN1 binding with FAM-labeled probe
- condition: 24 hr after treatment with compound; read-out: TR FRET IC50 24 hr

The molecule listed as CCN1C(=O)[C@@H](NC(=O)c2cccc(C(F)(F)F)c2)[C@@H](c2ccc(F)cc2)c2c(C(=O)N(C)[C@@H](C#N)C3COC3)nn(-c3ccccc3)c21 (single isomer, unassigned) [Compound I-291] shows IC50 equal to ≤ 200 nM

Form: molecule = CCN1C(=O)[C@H](NC(=O)c2cccc(C(F)(F)F)c2)[C@H](c2ccc(F)cc2)c2c(C(=O)N3CCC[C@H]3C#N)nn(-c3cccc(OCCCN4CC5(COC5)C4)c3)c21 (stereo in doubt) [Compound I-293] ; IC50 = ≤ 200 nM

// recorded IC50 for CCN1C(=O)[C@@H](NC(=O)c2cccc(C(F)(F)F)c2)[C@@H](C2CC2)c2c(C(=O)N3CCN(C)C[C@@H]3C#N)nn(C3CCOCC3)c21 (single isomer, unassigned) [Compound I-431] : 200 to 1000 nM

----------
- assayed_target: DCN1 (DCUND1) protein PONY domain (Homo sapiens (Human), UniProt Q96GG9)
- Sequence (Q96GG9 60-248): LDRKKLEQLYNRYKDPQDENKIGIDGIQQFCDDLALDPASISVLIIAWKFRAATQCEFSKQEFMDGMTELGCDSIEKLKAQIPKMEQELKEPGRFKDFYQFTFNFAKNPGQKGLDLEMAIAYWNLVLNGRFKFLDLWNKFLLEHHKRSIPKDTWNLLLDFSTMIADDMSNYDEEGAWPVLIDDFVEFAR
- assay_procedure: TR-FRET assay, DCN1 binding with FAM-labeled probe
- condition: TR FRET IC50 1 hr (nM), 1 hr after treatment with compound
Some compounds, each annotated with its measured IC50.

Examples with their reported IC50 follow.
compound	IC50
CCN1C(=O)[C@@H](NC(=O)c2ccc3scnc3c2)[C@@H](C2CC2)c2c(C(=O)N3[C@H](C#N)C[C@H]4C[C@H]43)nn(C3CCOCC3)c21 [Compound I-483]	1000 to 3000 nM
CCN1C(=O)[C@@H](NC(=O)c2cccc(C(F)(F)F)c2)[C@@H](c2ccc(F)cc2)c2c(CN(C#N)CCCN3CC4(COC4)C3)nn(-c3ccccc3)c21 [Compound I-577]	200 to 1000 nM
CCN1C(=O)[C@@H](NC(=O)c2cccc(C(F)(F)F)c2)[C@@H](c2ccc(F)cc2)c2c(CN(C)C/C=C/C(=O)N3CCCC3)nn(-c3ccccc3)c21 [Compound I-606]	200 to 1000 nM
CCN1C(=O)[C@@H](NC(=O)c2cccc(C(F)(F)F)c2)[C@@H](c2ccc(F)cc2)c2c([C@@H](C)N(C#N)CCCN(C)C)nn(-c3ccccc3)c21 [Compound I-578]	1000 to 3000 nM
CCN1C(=O)[C@@H](NC(=O)c2cccc(C(F)(F)F)c2)[C@@H](C2CC2)c2c(C(=O)N(C)C(C)C#N)nn(C3CC3)c21 (some centres unmarked) [Compound I-492]	200 to 1000 nM
CCN1C(=O)[C@@H](NC(=O)CS(C)(=O)=O)[C@@H](C2CC2)c2c(C(=O)N3[C@H](C#N)C[C@H]4C[C@H]43)nn(C3CCOCC3)c21 [Compound I-546]	1000 to 3000 nM
CCN1C(=O)[C@H](NC(=O)c2cccc(C(F)(F)F)c2)[C@H](c2ccc(F)cc2)c2c(C(=O)N3[C@H](C#N)C[C@H]4C[C@H]43)nn([C@@H]3CCOC3)c21 (single isomer, unassigned) [Compound I-562]	1000 to 3000 nM
CCN1C(=O)[C@@H](NC(=O)c2cccc(C(F)(F)F)c2)[C@@H](c2ccc(F)cc2)c2c(CNC/C=C/C(=O)OC(C)(C)C)nn(-c3ccccc3)c21 [Compound I-635]	1000 to 3000 nM
CCN1C(=O)[C@H](NC(=O)c2cccc(C(F)(F)F)c2)[C@H](c2ccc(F)cc2)c2c(C(=O)N(CC#N)CCO)nn(-c3ccccc3)c21 (stereo in doubt) [Compound I-639]	1000 to 3000 nM
CCN1C(=O)[C@@H](NC(=O)c2cccc(C(F)(F)F)c2)[C@@H](c2ccc(F)cc2)c2c(CNC(=O)/C=C/C(=O)OC(C)(C)C)nn(-c3ccccc3)c21 (racemic) [Compound I-45]	1000 to 3000 nM

Switching to the query record.
Value of measured IC50 for the entry CCN1C(=O)[C@@H](NC(=O)c2cccc(C(F)(F)F)c2)[C@@H](c2ccc(F)cc2)c2c([C@H](C)NC#N)nn(-c3ccccc3)c21 [Compound I-530] : 200 to 1000 nM
